ASSAYED_SYSTEM: HLA-A*02:01 (Homo sapiens, UniProt P04439, D140Y/D185E/D98H/E176V/E277Q/G131W/G231S/I119V/I121R/I166T/I218V/L300P/L318F/N151K/N90K/P208A/P217A/Q86G/Q94H/R138H/R169H/T345S)
ASSAY_PROTOCOL: MHC binding assay (UV-ligand exchange, ELISA of exchange yield)
EXPERIMENTAL_PARAMETERS: binding to HLA-A*02:01, UV-ligand exchange
ASSAY_ENDPOINT: Peptide exchange (MHC class I binding score, peptide exchange yield)

SUBSTANCE	ASSAY_VALUE
326 (FLPEALDFV; listed as Homo sapiens) [compound 326]	“+++” (≥50 = +++)
223 (ALLENIALYL; listed as Homo sapiens) [compound 223]	“+++” (≥50 = +++)
375 (SLTETIEGV; listed as Homo sapiens) [compound 375]	“++” (≥20% = ++)
31 (YLAPELFVNV; listed as Homo sapiens) [compound 31]	“++” (≥20% = ++)
623 (YLVEDIQHI; listed as Homo sapiens) [compound 623]	“+++” (≥50 = +++)
601 (SAFPFPVTV; listed as Homo sapiens) [compound 601]	“+++” (≥50 = +++)
277 (LLPPLESLATV; listed as Homo sapiens) [compound 277]	“++” (≥20% = ++)
233 (VLSETLYEL; listed as Homo sapiens) [compound 233]	“++” (≥20% = ++)
92 (YLIPFTGIVGL; listed as Homo sapiens) [compound 92]	“++” (≥20% = ++)
265 (LLFGGTKTV; listed as Homo sapiens) [compound 265]	“++” (≥20% = ++)
539 (ALFDAQAQV; listed as Homo sapiens) [compound 539]	“+++” (≥50 = +++)
135 (ALSEVDFQL; listed as Homo sapiens) [compound 135]	“+++” (≥50 = +++)
115 (AIAGAGILYGV; listed as Homo sapiens) [compound 115]	“++” (≥20% = ++)
584 (ALAEVAAMENV; listed as Homo sapiens) [compound 584]	“+++” (≥50 = +++)
295 (VLDRESPNV; listed as Homo sapiens) [compound 295]	“+++” (≥50 = +++)
469 (YLASDEITTV; listed as Homo sapiens) [compound 469]	“+++” (≥50 = +++)
147 (SLLEAVSFL; listed as Homo sapiens) [compound 147]	“+++” (≥50 = +++)
537 (TLAPGEVLRSV; listed as Homo sapiens) [compound 537]	“+++” (≥50 = +++)
438 (KLLPLAGLYL; listed as Homo sapiens) [compound 438]	“++++” (≥75% = ++++)
221 (ALYEEGLLL; listed as Homo sapiens) [compound 221]	“++” (≥20% = ++)
324 (FLYDEIEAEV; listed as Homo sapiens) [compound 324]	“+++” (≥50 = +++)
571 (LLLTTIPQI; listed as Homo sapiens) [compound 571]	“+++” (≥50 = +++)
370 (SLLQDLVSV; listed as Homo sapiens) [compound 370]	“+++” (≥50 = +++)
39 (SVAPNLPAV; listed as Homo sapiens) [compound 39]	“+++” (≥50 = +++)
606 (ALWETEVYI; listed as Homo sapiens) [compound 606]	“+++” (≥50 = +++)
392 (ALLHPQGFEV; listed as Homo sapiens) [compound 392]	“++” (≥20% = ++)
96 (YIFTDNPAAV; listed as Homo sapiens) [compound 96]	“+++” (≥50 = +++)
494 (ALQPEPIKV; listed as Homo sapiens) [compound 494]	“++” (≥20% = ++)
12 (SLWPDPMEV; listed as Homo sapiens) [compound 12]	“+++” (≥50 = +++)
148 (ALNPEIVSV; listed as Homo sapiens) [compound 148]	“++” (≥20% = ++)
18 (YLVAKLVEV; listed as Homo sapiens) [compound 18]	“++” (≥20% = ++)
269 (RVLEVGALQAV; listed as Homo sapiens) [compound 269]	“++” (≥20% = ++)
504 (GLSDGNPSL; listed as Homo sapiens) [compound 504]	“++” (≥20% = ++)
563 (WLLPYNGVTV; listed as Homo sapiens) [compound 563]	“+++” (≥50 = +++)
339 (GLWEIENNPTVKA; listed as Homo sapiens) [compound 339]	“++++” (≥75% = ++++)
479 (SLFGNSGILENV; listed as Homo sapiens) [compound 479]	“+++” (≥50 = +++)
298 (VMITKLVEV; listed as Homo sapiens) [compound 298]	“+++” (≥50 = +++)
47 (ILLSVPLLVV; listed as Homo sapiens) [compound 47]	“++” (≥20% = ++)

----------
ASSAYED_SYSTEM: HLA-A*02:01 (Homo sapiens, UniProt P04439, D140Y/D185E/D98H/E176V/E277Q/G131W/G231S/I119V/I121R/I166T/I218V/L300P/L318F/N151K/N90K/P208A/P217A/Q86G/Q94H/R138H/R169H/T345S)
ASSAY_PROTOCOL: MHC binding assay (UV-ligand exchange, ELISA of exchange yield)
EXPERIMENTAL_PARAMETERS: binding to HLA-A*02:01, UV-ligand exchange
Excerpt: Candidate peptides for T cell based therapies according to the present invention were further tested for their MHC binding capacity (affinity). The individual peptide-MHC complexes were produced by UV-ligand exchange, where a UV-sensitive peptide is cleaved upon UV-irradiation, and exchanged with the peptide of interest as analyzed. Only peptide candidates that can effectively bind and stabilize the peptide-receptive MHC molecules prevent dissociation of the MHC complexes. […]
ASSAY_ENDPOINT: Peptide exchange (MHC class I binding score, peptide exchange yield)

SUBSTANCE	ASSAY_VALUE
247 (VLLPNDLLEKV; listed as Homo sapiens) [compound 247]	“+++” (≥50 = +++)
588 (SLLPLSHLV; listed as Homo sapiens) [compound 588]	“+++” (≥50 = +++)
514 (ILVDWLVQV; listed as Homo sapiens) [compound 514]	“+++” (≥50 = +++)

----------
ASSAYED_SYSTEM: HLA-A*02:01 (Homo sapiens, UniProt P04439, D140Y/D185E/D98H/E176V/E277Q/G131W/G231S/I119V/I121R/I166T/I218V/L300P/L318F/N151K/N90K/P208A/P217A/Q86G/Q94H/R138H/R169H/T345S)
ASSAY_PROTOCOL: MHC binding assay (UV-ligand exchange, ELISA of exchange yield)
EXPERIMENTAL_PARAMETERS: binding to HLA-A*02:01, UV-ligand exchange
ASSAY_ENDPOINT: Peptide exchange (MHC class I binding score, peptide exchange yield)

SUBSTANCE	ASSAY_VALUE
86 (NLIGKIENV; listed as Homo sapiens) [compound 86]	“+++” (≥50 = +++)
254 (TLLAFIMEL; listed as Homo sapiens) [compound 254]	“+++” (≥50 = +++)
139 (SVMEVNSGIYRV; listed as Homo sapiens) [compound 139]	“+++” (≥50 = +++)

----------
ASSAYED_SYSTEM: HLA-A*02:01 (Homo sapiens, UniProt P04439, D140Y/D185E/D98H/E176V/E277Q/G131W/G231S/I119V/I121R/I166T/I218V/L300P/L318F/N151K/N90K/P208A/P217A/Q86G/Q94H/R138H/R169H/T345S)
ASSAY_PROTOCOL: MHC binding assay (UV-ligand exchange, ELISA of exchange yield)
EXPERIMENTAL_PARAMETERS: binding to HLA-A*02:01, UV-ligand exchange
ASSAY_ENDPOINT: Peptide exchange (MHC class I binding score, peptide exchange yield)

SUBSTANCE	ASSAY_VALUE
256 (FLPPEHTIVYI; listed as Homo sapiens) [compound 256]	“+++” (≥50 = +++)
59 (IMEDIILTL; listed as Homo sapiens) [compound 59]	“+++” (≥50 = +++)
13 (YLMDESLNL; listed as Homo sapiens) [compound 13]	“+++” (≥50 = +++)
300 (ALLGQTFSL; listed as Homo sapiens) [compound 300]	“+++” (≥50 = +++)
491 (GLNDRSDAV; listed as Homo sapiens) [compound 491]	“++” (≥20% = ++)
255 (VLASYNLTV; listed as Homo sapiens) [compound 255]	“+++” (≥50 = +++)
429 (GLVNDLARV; listed as Homo sapiens) [compound 429]	“++” (≥20% = ++)
586 (KLKPGDLVGV; listed as Homo sapiens) [compound 586]	“+++” (≥50 = +++)
229 (RLPGPLGTV; listed as Homo sapiens) [compound 229]	“++” (≥20% = ++)
468 (YLRSVGDGETV; listed as Homo sapiens) [compound 468]	“+++” (≥50 = +++)
518 (KLNAEVACV; listed as Homo sapiens) [compound 518]	“+++” (≥50 = +++)
502 (RLLAQVPGL; listed as Homo sapiens) [compound 502]	“+++” (≥50 = +++)
79 (SLFIGEKAVLL; listed as Homo sapiens) [compound 79]	“+++” (≥50 = +++)
124 (ALYETELADA; listed as Homo sapiens) [compound 124]	“++” (≥20% = ++)
349 (SLTEYLQNV; listed as Homo sapiens) [compound 349]	“++++” (≥75% = ++++)
302 (ALLQEGEVYSA; listed as Homo sapiens) [compound 302]	“+++” (≥50 = +++)
618 (VLFDSESIGIYV; listed as Homo sapiens) [compound 618]	“+++” (≥50 = +++)
165 (SLLDEIRAV; listed as Homo sapiens) [compound 165]	“+++” (≥50 = +++)
108 (ALFPGVALLLA; listed as Homo sapiens) [compound 108]	“++++” (≥75% = ++++)
24 (SLSDGLEEV; listed as Homo sapiens) [compound 24]	“++” (≥20% = ++)
76 (ILIDSIYKV; listed as Homo sapiens) [compound 76]	“+++” (≥50 = +++)
266 (KITDTLIHL; listed as Homo sapiens) [compound 266]	“+++” (≥50 = +++)
220 (LLQKFVPEI; listed as Homo sapiens) [compound 220]	“++” (≥20% = ++)
160 (FLFDEEIEQI; listed as Homo sapiens) [compound 160]	“+++” (≥50 = +++)
68 (SLMELPRGLFL; listed as Homo sapiens) [compound 68]	“++++” (≥75% = ++++)
464 (ALNDCIYSV; listed as Homo sapiens) [compound 464]	“+++” (≥50 = +++)
434 (KVSNSGITRV; listed as Homo sapiens) [compound 434]	“++” (≥20% = ++)
450 (FMIDASVHPTL; listed as Homo sapiens) [compound 450]	“+++” (≥50 = +++)
200 (LLFGSVQEV; listed as Homo sapiens) [compound 200]	“+++” (≥50 = +++)
201 (RLVDYLEGI; listed as Homo sapiens) [compound 201]	“+++” (≥50 = +++)
210 (LLLNAVLTV; listed as Homo sapiens) [compound 210]	“++” (≥20% = ++)
541 (SMLEPVPEL; listed as Homo sapiens) [compound 541]	“+++” (≥50 = +++)
